Tested on: MX-1 breast xenograft, nude mice, tumor weight T/C
Experiment: NCI In Vivo Anticancer Drug Screen. Data for tumor model Human Mammary Carcinoma MX-1 Xenograft (intrarenal inoculation) in NU/NU Swiss (nude) mice
Settings: endpoint: mean tumor weight change; dose: 20.0 mg/kg/injection; schedule: Q04DX003 (sc); vehicle: saline; higher = larger tumour
Results filed as inconclusive are left out.
Record form. Attribute: T/C. Fill in for each entry.

Data request: For MX-1 breast xenograft, nude mice, tumor weight T/C, give the measured T/C of the entry Cc1ccc(S(=O)(=O)N/N=C/C(Br)=C(/Br)C(=O)O)cc1
Data returned: 78 % of control

Data request: For MX-1 breast xenograft, nude mice, tumor weight T/C, give the measured T/C of the entry NC(=O)c1[nH]nc(C2OC(CO)C(O)C2O)c1O (stereo not given)
Data returned: 68 % of control

Data request: For MX-1 breast xenograft, nude mice, tumor weight T/C, give the measured T/C of the entry O=NN(CCCl)C(=O)NC1OC(CO)C(O)C(O)C1O (stereo not given)
Data returned: 40 % of control

Data request: For MX-1 breast xenograft, nude mice, tumor weight T/C, give the measured T/C of the entry c1ccc([P+](c2ccccc2)(c2ccccc2)c2ccccc2)cc1
Data returned: 61 % of control

Data request: For MX-1 breast xenograft, nude mice, tumor weight T/C, give the measured T/C of the entry CC(C)CC(NC(=O)CF)C(=O)O (stereo not given)
Data returned: 89 % of control

* * *

Test system: MX-1 breast xenograft, nude mice, tumor weight T/C
Assay: NCI In Vivo Anticancer Drug Screen. Data for tumor model Human Mammary Carcinoma MX-1 Xenograft (intrarenal inoculation) in NU/NU Swiss (nude) mice
Settings: endpoint: mean tumor weight change; dose: 100.0 mg/kg/injection; schedule: Q01DX010 (sc); vehicle: saline; higher = larger tumour
Records with an inconclusive call do not appear.
Assay Readout: T/C

Data request: For MX-1 breast xenograft, nude mice, tumor weight T/C, give the measured T/C of the entry C=CC(=O)NCNC(=O)C=C
Data returned: 91 % of control

Data request: For MX-1 breast xenograft, nude mice, tumor weight T/C, give the measured T/C of the entry CN1c2c(nc(N)[nH]c2=O)NCC1CCNc1ccc(C(=O)NC(CCC(=O)O)C(=O)O)cc1 (stereo not given)
Data returned: 83 % of control

Data request: For MX-1 breast xenograft, nude mice, tumor weight T/C, give the measured T/C of the entry NCCc1ccc(O)c(O)c1
Data returned: 77 % of control

Data request: For MX-1 breast xenograft, nude mice, tumor weight T/C, give the measured T/C of the entry Cc1cn(C2CC3[O][Sn]([c]4ccccc4)([c]4ccccc4)[O]CC3O2)c(=O)[nH]c1=O (stereo not given)
Data returned: 93 % of control

Data request: For MX-1 breast xenograft, nude mice, tumor weight T/C, give the measured T/C of the entry NC1=NCN(C2OC(CO)C(O)C2O)C(=O)N1 (stereo not given)
Data returned: 6 % of control

Data request: For MX-1 breast xenograft, nude mice, tumor weight T/C, give the measured T/C of the entry O=C1C=CN(C2OC(CO)C(O)C2O)C(=O)C1 (stereo not given)
Data returned: 41 % of control

Data request: For MX-1 breast xenograft, nude mice, tumor weight T/C, give the measured T/C of the entry C1CN2CN3CCN(CN1C3)C2
Data returned: 114 % of control

Data request: For MX-1 breast xenograft, nude mice, tumor weight T/C, give the measured T/C of the entry CCN(CC)CCNc1ccc(C)c2sc3ccccc3c(=O)c12
Data returned: 53 % of control

Data request: For MX-1 breast xenograft, nude mice, tumor weight T/C, give the measured T/C of the entry Cc1cc2nc3[nH]c4ccccc4c3nc2cc1C
Data returned: 92 % of control

Data request: For MX-1 breast xenograft, nude mice, tumor weight T/C, give the measured T/C of the entry C=CS(=O)(=O)c1ccccc1
Data returned: 81 % of control

* * *

Test system: MX-1 breast xenograft, nude mice, tumor weight T/C
Assay: NCI In Vivo Anticancer Drug Screen. Data for tumor model Human Mammary Carcinoma MX-1 Xenograft (intrarenal inoculation) in NU/NU Swiss (nude) mice
Details: endpoint: mean tumor weight change; dose: 100.0 mg/kg/injection; schedule: Q04DX003 (sc); vehicle: saline with Tween-80; higher = larger tumour
Results filed as inconclusive are left out.
Assay Readout: T/C

Data request: Tell us which T/C value is on record for C[n+]1cccc(NC(=O)c2ccc(NC(=O)C34CCC(C(=O)Nc5ccc(C(=O)Nc6ccc[n+](C)c6)cc5)(CC3)CC4)cc2)c1
Data returned: 27 % of control

Data request: Tell us which T/C value is on record for O=C[C@@H](CO)O[C@H](C=O)n1cnc2c(=O)[nH]cnc21
Data returned: 41 % of control

Data request: Tell us which T/C value is on record for Cc1ccc2c(c1)N=C(Nc1ccccc1)N=S2(C)=O (stereo unspecified)
Data returned: 79 % of control

Data request: Tell us which T/C value is on record for Nc1cc2c3c(cccc3c1)C(=O)N(CCN1CCCC1)C2=O
Data returned: 120 % of control

Data request: Tell us which T/C value is on record for O=C(O[Si](Cc1ccccc1)(Cc1ccccc1)Cc1ccccc1)N(CCCl)CCCl
Data returned: 78 % of control

Data request: Tell us which T/C value is on record for BrC[P+](CBr)(CBr)CBr
Data returned: 105 % of control

Data request: Tell us which T/C value is on record for ClC1=C(Cl)C(Cl)=C(Cl)C1=Cc1ccccc1
Data returned: 98 % of control

Data request: Tell us which T/C value is on record for O=C(Nc1ccccc1C(=O)O)c1cc([N+](=O)[O-])cc([N+](=O)[O-])c1
Data returned: 101 % of control

Data request: Tell us which T/C value is on record for O=C(O)C1Cc2nc[nH]c2CN1CO (stereo unspecified)
Data returned: 113 % of control

Data request: Tell us which T/C value is on record for COc1cc(C2c3cc4c(cc3C(O)C(CO)C2CO)OCO4)cc(OC)c1OC (stereo unspecified)
Data returned: 109 % of control

Data request: Tell us which T/C value is on record for CC(=O)N(C)c1ccc(Nc2cc(C)[nH]c3ccc4ncnc4c23)cc1
Data returned: 84 % of control

* * *

System: MX-1 breast xenograft, nude mice, tumor weight T/C
Assay: NCI In Vivo Anticancer Drug Screen. Data for tumor model Human Mammary Carcinoma MX-1 Xenograft (intrarenal inoculation) in NU/NU Swiss (nude) mice
Conditions: endpoint: mean tumor weight change; dose: 600.0 mg/kg/injection; schedule: Q04DX003 (sc); vehicle: saline with Tween-80; higher = larger tumour
Results filed as inconclusive are left out.
Record form. Attribute: T/C. Fill in for each entry.

Data request: Tell us which T/C value is on record for COCCCNC1=C(C#N)C(=O)NC(c2cccc([N+](=O)[O-])c2)S1 (configuration not stated)
Data returned: 101 % of control

Data request: Tell us which T/C value is on record for CO[C@@H]1[C@H](O)CC[C@]2(CO2)[C@H]1[C@@]1(C)O[C@@H]1CC=C(C)C
Data returned: 99 % of control

Data request: Tell us which T/C value is on record for [I][Hg][CH2]C1COC([CH2][Hg][I])CO1 (configuration not stated)
Data returned: 77 % of control

Data request: Tell us which T/C value is on record for S=c1[nH]cc2cnccn12
Data returned: 97 % of control

Data request: Tell us which T/C value is on record for COc1cccc(C2NC(=O)c3c(n[nH]c3N)S2)c1O (configuration not stated)
Data returned: 77 % of control

Data request: Tell us which T/C value is on record for CN=S(=O)(OCCCCCOS(=O)(=NC)c1ccccc1)c1ccccc1 (configuration not stated)
Data returned: 76 % of control

Data request: Tell us which T/C value is on record for CC(=O)OCC1(C)NC(=O)c2ccccc2O1 (configuration not stated)
Data returned: 108 % of control

Data request: Tell us which T/C value is on record for NC(=S)N/N=C/c1ccc(OC(=O)COc2ccc(Cl)cc2)cn1
Data returned: 88 % of control

Data request: Tell us which T/C value is on record for CCCCCCOC(CN(C)C)C(Cl)(Cl)Cl (configuration not stated)
Data returned: 69 % of control

Data request: Tell us which T/C value is on record for Cc1cc(O)c(N=Nc2ccc(C(=O)O)cc2)cc1C
Data returned: 124 % of control

Data request: Tell us which T/C value is on record for COc1ccc([I+]c2cccc(Cl)c2)cc1Cl
Data returned: 84 % of control

Data request: Tell us which T/C value is on record for BrC1c2cccc3cccc(c23)C1Br (configuration not stated)
Data returned: 202 % of control

* * *

Tested on: MX-1 breast xenograft, nude mice, tumor weight T/C
Test: NCI In Vivo Anticancer Drug Screen. Data for tumor model Human Mammary Carcinoma MX-1 Xenograft (intrarenal inoculation) in NU/NU Swiss (nude) mice
Conditions: endpoint: mean tumor weight change; dose: 600.0 mg/kg/injection; schedule: Q04DX003 (sc); vehicle: saline; higher = larger tumour
Inconclusive results are not listed.
Assay Readout: T/C

Data request: Tell us which T/C value is on record for CCOC(=O)C(N)CSC(=O)NC (stereo not drawn)
Data returned: 8 % of control

Data request: Tell us which T/C value is on record for N=c1ccn2c(n1)OC1C(O)C(CO)OC12 (stereo not drawn)
Data returned: 42 % of control

Data request: Tell us which T/C value is on record for COC(=O)C(N)Cc1ccc(O)c(O)c1 (stereo not drawn)
Data returned: 101 % of control

Data request: Tell us which T/C value is on record for N#CC(OC1OC(COC2OC(CO)C(O)C(O)C2O)C(O)C(O)C1O)c1ccccc1 (stereo not drawn)
Data returned: 83 % of control

Data request: Tell us which T/C value is on record for OCC1OC(n2cnc3c(=S)nc[nH]c32)C(O)C1O (stereo not drawn)
Data returned: 69 % of control

Data request: Tell us which T/C value is on record for NC(CCC(=O)NC(CS)C(=O)NCC(=O)O)C(=O)O (stereo not drawn)
Data returned: 93 % of control

Data request: Tell us which T/C value is on record for C(COCCOCC1CO1)OCCOCC1CO1 (stereo not drawn)
Data returned: 29 % of control

Data request: Tell us which T/C value is on record for O=c1ncccn1[C@@H]1O[C@H](CO)[C@H](O)C1O (stereo partly drawn)
Data returned: 160 % of control

Data request: Tell us which T/C value is on record for C=C(C)[C@@H]1CCc2c(O)c(O)c(=O)cc(C)c2C1
Data returned: 89 % of control

Data request: Tell us which T/C value is on record for Cc1ccccc1CN1C2=NCCN2C(=O)C2=C1CCN(S(=O)(=O)c1ccc(Cl)c(S(N)(=O)=O)c1)C2
Data returned: 122 % of control

Data request: Tell us which T/C value is on record for OCC1OC(n2cnc3c(Cl)ncnc32)C(O)C1O (stereo not drawn)
Data returned: 84 % of control

Data request: Tell us which T/C value is on record for OCCCN1CCCCC1CO (stereo not drawn)
Data returned: 84 % of control

Data request: Tell us which T/C value is on record for O=c1[nH]c(=O)n(C2CC(O)C(CO)O2)cc1C(F)(F)F (stereo not drawn)
Data returned: 72 % of control

Data request: Tell us which T/C value is on record for OCC12COCN1COC2
Data returned: 102 % of control

Data request: Tell us which T/C value is on record for CONc1ccn(C2OC(CO)C(O)C2O)c(=O)n1 (stereo not drawn)
Data returned: 74 % of control

Data request: Tell us which T/C value is on record for C[C@H](N)C(=O)N[C@@H]1[C@H]2C(=C(O)C[C@@H](O)[C@@H]2O)C(=O)O[C@@H]1C
Data returned: 67 % of control

Data request: Tell us which T/C value is on record for O=C(O)C1CC(O)CN1 (stereo not drawn)
Data returned: 91 % of control

Data request: Tell us which T/C value is on record for Nc1ncn(C2OC(CO)C(O)C2O)c(=O)n1 (stereo not drawn)
Data returned: 2 % of control

Data request: Tell us which T/C value is on record for Cc1cn(C2CC3[O][Sn]([c]4ccccc4)([c]4ccccc4)[O]CC3O2)c(=O)[nH]c1=O (stereo not drawn)
Data returned: 86 % of control

Data request: Tell us which T/C value is on record for COC(=O)c1ccoc1
Data returned: 66 % of control

Data request: Tell us which T/C value is on record for C=CCc1cn(C2CC(O)C(CO)O2)c(=O)[nH]c1=O (stereo not drawn)
Data returned: 114 % of control

Data request: Tell us which T/C value is on record for CC(=O)OCC1OC(n2ccc(N)nc2=O)C(OC(C)=O)C1OC(C)=O (stereo not drawn)
Data returned: 82 % of control

Data request: Tell us which T/C value is on record for Nc1cccc(=O)[nH]1
Data returned: 95 % of control

Data request: Tell us which T/C value is on record for CCC(CC)COC(=O)c1ccccc1C(=O)OCC(CC)CC
Data returned: 82 % of control

Data request: Tell us which T/C value is on record for O=C(O)CP(=O)(O)O
Data returned: 89 % of control

Data request: Tell us which T/C value is on record for CCCCCC[C@@H](O)C/C=C\CCCCCCCC(=O)OCCO
Data returned: 104 % of control

Data request: Tell us which T/C value is on record for Cn1cnc([N+](=O)[O-])c1SCC(=O)O
Data returned: 43 % of control

Data request: Tell us which T/C value is on record for c1ccc2c(c1)[As]=c1ccccc1=[As]2 (stereo not drawn)
Data returned: 99 % of control

Reference source for all entries: PubChem BioAssay AID296
